We begin with a simple list: items and their reported Activity.
Test system: PC-3
protocol-details: Antiproliferative activity against human PC3 cells at 40 uM incubated for 72 hrs by MTT assay relative to control
Type: functional

CC(=O)O[C@@]12[C@H](OC(=O)CCCCCCCCCCCNC(=O)C[C@H](N)C(=O)N[C@@H](CCC(=O)N[C@@H](CCC(=O)N[C@@H](CCC(=O)N[C@@H](CCC(=O)O)C(=O)O)C(=O)O)C(=O)O)C(=O)O)[C@@H](C)[C@@]3(O)[C@@H](C=C(CO)C[C@]4(O)C(=O)C(C)=C[C@@H]34)[C@@H]1C2(C)C : 10%

The value of Activity measured for the compound "C/C=C(/C)C(=O)O[C@H]1C(C)=C2[C@H]([C@@H]1OC(=O)CCCCCCC)[C@@](C)(OC(C)=O)C[C@H](OC(=O)CCCCCCCCCCCNC(=O)C[C@H](N)C(N)=O)[C@@]1(O)[C@H]2OC(=O)[C@@]1(C)O" turned out to be 15%

###

System: PC-3
protocol-details: Antiproliferative activity against human PC3 cells at 40 uM incubated for 72 hrs by MTT assay relative to control
Type: functional
Non-standard residues stand in square brackets, D forms with d. Residues, ends and D or L forms follow the SMILES beside them. *: point of attachment. X1 = CC(=O)O[C@@]12[C@H](O*)[C@@H](C)[C@@]3(O)[C@@H](C=C(CO)C[C@]4(O)C(=O)C(C)=C[C@@H]34)[C@@H]1C2(C)C; 12Ado = NCCCCCCCCCCCC(=O)O
outcome-measure: Activity (%)
Hi! Could you send only the number? It should be in %, unit omitted.

The value of Activity measured for the molecule C/C=C(/C)C(=O)O[C@H]1C(C)=C2[C@H]([C@@H]1OC(=O)CCCCCCC)[C@@](C)(OC(C)=O)C[C@H](OC(=O)CCCCCCCCCCCNC(=O)C[C@H](N)C(=O)N[C@@H](CCC(=O)N[C@@H](CCC(=O)N[C@@H](CCC(=O)N[C@@H](CCC(=O)O)C(=O)O)C(=O)O)C(=O)O)C(=O)O)[C@@]1(O)[C@H]2OC(=O)[C@@]1(C)O [MIPSAGARGIN] turned out to be 32

The value of Activity measured for the molecule CC(=O)NCC(=O)N[C@@H](CCCCN)C(=O)N[C@@H](C)C(=O)N[C@@H](Cc1ccccc1)C(=O)N[C@@H](CCCNC(=N)N)C(=O)N[C@@H](CCCNC(=N)N)C(=O)N[C@@H](CC(C)C)C(=O)NCCCCCCCCCCCC(=O)O[C@@H]1[C@@H](C)[C@@]2(O)[C@@H](C=C(CO)C[C@]3(O)C(=O)C(C)=C[C@@H]23)[C@@H]2C(C)(C)[C@]12OC(C)=O (Ac-GKAFRRL[12Ado]-X1) turned out to be 15

The value of Activity measured for the molecule "CC(=O)O[C@@]12[C@H](OC(=O)CCCCCCCCCCCNC(=O)[C@@H](N)CC(C)C)[C@@H](C)[C@@]3(O)[C@@H](C=C(CO)C[C@]4(O)C(=O)C(C)=C[C@@H]34)[C@@H]1C2(C)C" turned out to be 30

###

experimental-system: Protein kinase C (PKC) (Homo sapiens) (UniProt O94806+P41743+P17252+P05129+Q05655+P05771+Q05513+Q02156+P24723+Q15139+Q04759)
protocol-details: Activation of PKC in human 22Rv1 cells assessed as increase in ERK1/ERK2 phosphorylation at 20 uM incubated for 30 mins by Western blot analysis
Type: cell-based
assay-context: CWR22R
The source made the active and inactive calls. The rule behind the calls is not given here. Starred links: 1 amine or outer side, 2 acyl side, 3 side chain; linkers in the order of their positions; H or OH if unused. Non-standard residues stand in square brackets, D forms with d. Residues, ends and D or L forms follow the SMILES beside them. *: point of attachment. X1 = CC(=O)O[C@@]12[C@H](O*)[C@@H](C)[C@@]3(O)[C@@H](C=C(CO)C[C@]4(O)C(=O)C(C)=C[C@@H]34)[C@@H]1C2(C)C; 12Ado = NCCCCCCCCCCCC(=O)O; Morpholide = C1CN(*)CCO1; CO = O=C([*:1])[*:2]
Field 'call' accepts Yes (active), No (inactive)

Solved entries:
CC(=O)NCC(=O)N[C@@H](CCCCN)C(=O)N[C@@H](C)C(=O)N[C@@H](Cc1ccccc1)C(=O)N[C@@H](CCCNC(=N)N)C(=O)N[C@@H](CCCNC(=N)N)C(=O)N[C@@H](CC(C)C)C(=O)NCCCCCCCCCCCC(=O)O[C@@H]1[C@@H](C)[C@@]2(O)[C@@H](C=C(CO)C[C@]3(O)C(=O)C(C)=C[C@@H]23)[C@@H]2C(C)(C)[C@]12OC(C)=O (Ac-GKAFRRL[12Ado]-X1) : Yes
CC(=O)O[C@@]12[C@H](OC(=O)CCCCCCCCCCCNC(=O)C[C@H](N)C(=O)N[C@@H](CCC(=O)N[C@@H](CCC(=O)N[C@@H](CCC(=O)N[C@@H](CCC(=O)O)C(=O)O)C(=O)O)C(=O)O)C(=O)O)[C@@H](C)[C@@]3(O)[C@@H](C=C(CO)C[C@]4(O)C(=O)C(C)=C[C@@H]34)[C@@H]1C2(C)C : No
CC(=O)O[C@@]12[C@H](OC(=O)CCCCCCCCCCCNC(=O)[C@@H](N)CC(C)C)[C@@H](C)[C@@]3(O)[C@@H](C=C(CO)C[C@]4(O)C(=O)C(C)=C[C@@H]34)[C@@H]1C2(C)C : Yes
CC(=O)O[C@@]12[C@H](OC(=O)CCCCCCCCCCCNC(=O)C[C@H](N)C(C)C)[C@@H](C)[C@@]3(O)[C@@H](C=C(CO)C[C@]4(O)C(=O)C(C)=C[C@@H]34)[C@@H]1C2(C)C : Yes

Here is the next item to consider.
Look up the recorded call for CC(=O)O[C@@]12[C@H](OC(=O)CCCCCCCCCCCNC(=O)[C@H](CC(C)C)NC(=O)[C@H](CCC(N)=O)NC(=O)[C@H](CC(C)C)NC(=O)[C@H](CCCCN)NC(=O)[C@H](CO)NC(=O)[C@H](CO)NC(=O)[C@H](Cc3cnc[nH]3)NC(=O)N3CCOCC3)[C@@H](C)[C@@]3(O)[C@@H](C=C(CO)C[C@]4(O)C(=O)C(C)=C[C@@H]34)[C@@H]1C2(C)C ({Morpholide-CO}-HSSKLQL[12Ado]-X1) in this test.
Yes
